assayed.target: Recombinant human his-tagged IGF 1R extracellular domain protein (human) (UniProt P08069)
test.method.notes: SPR, captured antibody, pH 7.4
measured.endpoint: Kd (nM)
Field format: number, assumed nM, no unit text.

>  <binder>
VRDN-03126 (antibody, V domains shown) VH: EVQLVESGGGVVQPGRSLRLSCAASGFTFDDYTMHWVRQAPGKGLEWVAVIWYDGSSKYYADSVKGRFTISRDNSKNTLYLQMNSLRAEDTAVYYCARELGRRYFDIWGQGTLVTVSS VL: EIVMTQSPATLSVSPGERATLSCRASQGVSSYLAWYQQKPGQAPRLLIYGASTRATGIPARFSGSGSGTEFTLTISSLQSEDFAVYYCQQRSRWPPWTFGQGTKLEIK

>  <unit.label>
nM

>  <Kd>
8.7

$$$$

Endpoint output: Kd of VRDN-03134 (antibody, V domains shown) VH: EVQLVESGGGVVQPGRSLRLSCAASGFTFSSYSMHWVRQAPGKGLEWVAVIWYDGSSKYYADSVKSRFTISRDNSKNTLYLQMNSLRAEDTAVYYCARELGRRYFDIWGQGTLVTVSS VL: EIVMTQSPATLSVSPGERATLSCRASQGVSSNLAWYQQKPGQAPRLLIYGASTRATGIPARFSGSGSGTEFTLTISSLQSEDFAVYYCQQRSRWPPWTFGGGTKLEIK . Value?
4.89

Endpoint output: Kd of VRDN-03114 (antibody, V domains shown) VH: QVQLVESGGGVVQPGRSLRLSCAASGFTFSDHYMDWVRQAPGKGLEWVAIIWFDGSSKYYVDSVKGRFTISRDNSKNTLYLQMNSLRAEDTAVYYCARELGRRYFDIWGRGTLVTVSS VL: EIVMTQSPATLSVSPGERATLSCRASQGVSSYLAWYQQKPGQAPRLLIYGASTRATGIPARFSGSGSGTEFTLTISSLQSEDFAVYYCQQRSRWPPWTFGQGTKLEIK . Value?
33.4

Endpoint output: Kd of VRDN-03119 (antibody, V domains shown) VH: EVQLVESGGGVVQPGRSLRLSCAASGFTFSSYSMHWVRQAPGKGLEWVAIIWFDGSEKYYVDSVKSRFTISRDNSKNTLYLQMNSLRAEDTAVYYCARELGRRYFDIWGQGTLVTVSS VL: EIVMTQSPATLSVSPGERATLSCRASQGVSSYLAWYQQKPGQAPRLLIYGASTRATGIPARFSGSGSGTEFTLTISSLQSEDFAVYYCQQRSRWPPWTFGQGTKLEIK . Value?
9.78

Endpoint output: Kd of VRDN-03123 (antibody, V domains shown) VH: EVQLVESGGGVVQPGRSLRLSCAASGFTFDDYAMHWVRQAPGKGLEWVAIIWFDGSSKYYADSVKGRFTISRDNSKNTLYLQMNSLRAEDTAVYYCARELGRRYFDIWGQGTLVTVSS VL: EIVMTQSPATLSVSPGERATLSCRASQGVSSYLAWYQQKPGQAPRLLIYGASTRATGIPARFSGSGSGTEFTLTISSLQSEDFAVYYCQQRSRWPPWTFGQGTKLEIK . Value?
1.43

Endpoint output: Kd of VRDN-03045 (antibody, V domains shown) VH: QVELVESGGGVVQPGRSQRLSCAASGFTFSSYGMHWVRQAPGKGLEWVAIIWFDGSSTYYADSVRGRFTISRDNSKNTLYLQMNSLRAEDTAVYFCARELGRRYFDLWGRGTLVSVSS VL: EIVLTQSPATLSLSPGERATLSCRASQSVSHYLAWYQQKPGQAPRLLIYDASKRATGIPARFSGSGSGTDFTLTISSLEPEDFAVYYCQQRSKWPPWTFGQGTKVESK . Value?
1.29

Endpoint output: Kd of VRDN-03102 (antibody, V domains shown) VH: QVQLVESGGGVVQPGRSLRLSCAASGFTFSDYTMHWVRQAPGKGLEWVAIIWFDGSSKYYVDSVKGRFTISRDNSKNTLYLQMNSLRAEDTAVYYCARELGRRYFDIWGRGTLVTVSS VL: EIVLTQSPATLSLSPGERATLSCRASQGVSSYLAWYQQKPGQAPRLLIYGASTRATGIPARFSGSGSGTDFTLTISSLEPEDFAVYYCQQRSRWPPWTFGQGTKLEIK . Value?
2.68

Endpoint output: Kd of VRDN-03089 (antibody, V domains shown) VH: QVQLVESGGGVVQPGRSLRLSCAASGFTFSSYGMHWVRQAPGKGLEWVAIIWFDGSSTYYADSVRGRFTISRDNSKNTLYLQMNSLRAEDTAVYYCARELGRRYFDLWGRGTLVTVSS VL: EIVLTQSPATLSLSPGERATLSCRASQSVSSSYLAWYQQKPGQAPRLLIYDASKRATGIPARFSGSGSGTDFTLTISSLEPEDFAVYYCQQRSKWPPWTFGQGTKVEIK . Value?
236

Endpoint output: Kd of VRDN-03104 (antibody, V domains shown) VH: QVQLVESGGGVVQPGRSLRLSCAASGFTFSDHYMDWVRQAPGKGLEWVAIIWFDGSSKYYADSVKGRFTISRDNSKNTLYLQMNSLRAEDTAVYYCARELGRRYFDIWGRGTLVTVSS VL: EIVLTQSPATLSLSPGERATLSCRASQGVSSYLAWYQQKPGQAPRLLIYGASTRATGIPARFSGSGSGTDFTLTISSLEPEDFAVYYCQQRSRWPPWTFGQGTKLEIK . Value?
3.05

Endpoint output: Kd of VRDN-03103 (antibody, V domains shown) VH: QVQLVESGGGVVQPGRSLRLSCAASGFTFSDYTMHWVRQAPGKGLEWVAIIWFDGSSKYYPGSVKGRFTISRDNSKNTLYLQMNSLRAEDTAVYYCARELGRRYFDIWGRGTLVTVSS VL: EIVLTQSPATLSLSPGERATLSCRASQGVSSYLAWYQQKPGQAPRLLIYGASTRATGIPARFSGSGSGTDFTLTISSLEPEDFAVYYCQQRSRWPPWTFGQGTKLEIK . Value?
12.8

Endpoint output: Kd of VRDN-03050 (antibody, V domains shown) VH: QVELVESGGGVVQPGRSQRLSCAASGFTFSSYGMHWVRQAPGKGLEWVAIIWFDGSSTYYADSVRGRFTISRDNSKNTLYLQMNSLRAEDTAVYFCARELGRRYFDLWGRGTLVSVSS VL: EIVLTQSPATLSLSPGERATLSCRASQSVSSYLAWYQQKPGQAPRLLIYDHSKRATGIPARFSGSGSGTDFTLTISSLEPEDFAVYYCQQRSKWPPWTFGQGTKVESK . Value?
2.03
